target: ATP-dependent translocase ABCB1 (Homo sapiens, UniProt P08183)
Sequence (P08183 whole entry): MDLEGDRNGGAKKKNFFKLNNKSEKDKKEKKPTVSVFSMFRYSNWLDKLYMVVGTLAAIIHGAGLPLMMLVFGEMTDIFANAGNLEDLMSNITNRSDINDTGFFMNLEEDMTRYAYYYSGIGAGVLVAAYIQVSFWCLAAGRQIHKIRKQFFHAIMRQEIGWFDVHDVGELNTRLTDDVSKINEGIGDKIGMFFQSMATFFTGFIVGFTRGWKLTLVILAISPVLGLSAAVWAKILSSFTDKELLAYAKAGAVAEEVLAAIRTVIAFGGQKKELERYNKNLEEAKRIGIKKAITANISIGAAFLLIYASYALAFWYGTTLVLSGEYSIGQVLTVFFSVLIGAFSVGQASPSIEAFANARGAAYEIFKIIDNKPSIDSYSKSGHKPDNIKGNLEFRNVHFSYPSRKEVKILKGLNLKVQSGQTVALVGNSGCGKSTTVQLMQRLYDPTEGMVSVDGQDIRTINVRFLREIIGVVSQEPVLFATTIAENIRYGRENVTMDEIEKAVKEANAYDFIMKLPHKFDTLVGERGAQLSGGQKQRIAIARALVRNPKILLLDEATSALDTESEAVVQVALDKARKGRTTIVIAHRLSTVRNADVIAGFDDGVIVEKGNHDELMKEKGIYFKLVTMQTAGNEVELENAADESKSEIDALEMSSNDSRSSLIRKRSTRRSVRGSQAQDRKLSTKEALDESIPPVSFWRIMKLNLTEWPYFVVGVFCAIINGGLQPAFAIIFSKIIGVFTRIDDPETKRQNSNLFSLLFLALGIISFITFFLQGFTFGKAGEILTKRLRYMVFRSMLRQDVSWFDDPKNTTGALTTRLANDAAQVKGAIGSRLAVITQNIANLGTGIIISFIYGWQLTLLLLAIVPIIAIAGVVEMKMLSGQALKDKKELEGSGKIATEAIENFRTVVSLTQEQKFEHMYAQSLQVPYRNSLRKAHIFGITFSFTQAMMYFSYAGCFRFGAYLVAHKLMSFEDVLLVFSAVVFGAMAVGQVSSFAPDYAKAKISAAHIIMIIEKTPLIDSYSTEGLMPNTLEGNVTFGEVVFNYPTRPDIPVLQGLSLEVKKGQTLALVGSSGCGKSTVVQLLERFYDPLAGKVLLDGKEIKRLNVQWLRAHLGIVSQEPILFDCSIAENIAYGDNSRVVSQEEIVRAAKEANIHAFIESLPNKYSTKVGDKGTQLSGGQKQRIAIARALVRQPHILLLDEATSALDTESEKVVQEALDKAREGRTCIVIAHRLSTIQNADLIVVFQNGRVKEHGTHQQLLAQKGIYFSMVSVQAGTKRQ
protocol: Inhibition of human ABCB1 in expressed in multidrug resistant mouse L5178Y cells assessed as fluorescence activity ratio at 20 uM by rhodamine 123 retention assay relative to parental L5178Y cells
Assay type: cell-based
observable: Ratio

**Query** Determine its reported Ratio: CCC(=O)c1ccc(OCCCN2CCN(c3cnccn3)CC2)cc1
**Result** 0.82

**Query** Determine its reported Ratio: CCC(C)(C)c1ccc(OCCCCN2CCN(c3cccnc3)CC2)cc1
**Result** 19.26

**Query** Determine its reported Ratio: CC(C)(C)c1ccc(OCCCCN2CCN(c3ncccn3)CC2)cc1
**Result** 34.05

**Query** Determine its reported Ratio: CC(C)(C)c1ccc(OCCCCN2CCN(c3cnccn3)CC2)cc1
**Result** 17.85

**Query** Determine its reported Ratio: CC(C)(C)c1ccc(OCCCCN2CCN(c3ccccn3)CC2)cc1
**Result** 38.41
